target: PDE4A1 (Mus musculus); construct: targets used in the assays are full-length proteins (as opposed to simply the catalytic domain); expressed in transfected cells; host or cells: Schizosaccharomyces pombe, PDE gene integrated in place of cgs2; experiment: 5FOA growth assay (high throughput screen, ED50) in fission yeast strain expressing PDE4A1; format: cell-based; settings: high throughput 5FOA growth screen; greater than 8.53 = statistically-significant inhibitor
parameter: Composite Z score, PDE4A1
Lab note: write the figure by itself, no unit.

Examples with their reported Composite Z score, PDE4A1 follow.
>>> df
                                   molecule         assayed_target  measured_result
0  Cc1c(C(=O)NCC2CCCO2)sc2ncnc(N3CCN(c4ccccc4F)CC3)c12 (centres unmarked)  PDE4A1 (Mus musculus)           1.9801
1            c1nc(NC2CCCC2)c2c3c(sc2n1)CCC3  PDE4A1 (Mus musculus)           29.047
2  CCOC(=O)c1sc2ncnc(N3CCC4(CC3)OCCO4)c2c1C  PDE4A1 (Mus musculus)           5.3411
3     Cc1sc2ncnc(NC3CCN(Cc4ccccc4)CC3)c2c1C  PDE4A1 (Mus musculus)           −0.147

Okay, now this molecule:
Composite Z score, PDE4A1 for Cc1c(C(=O)Nc2ccc(F)cc2F)sc2ncnc(N3CCC(C)CC3)c12 is 34.335

----------
target: PDE4A1 (Mus musculus, UniProt O89084); construct: targets used in the assays are full-length proteins (as opposed to simply the catalytic domain); expressed in transfected cells; host or cells: Schizosaccharomyces pombe, PDE gene integrated in place of cgs2; assay: 5FOA growth assay (high throughput screen, ED50) in fission yeast strain expressing PDE4A1; assay type: cell-based; conditions: high throughput 5FOA growth screen; greater than 8.53 = statistically-significant inhibitor
Sequence (O89084 1-610 isoform O89084-2): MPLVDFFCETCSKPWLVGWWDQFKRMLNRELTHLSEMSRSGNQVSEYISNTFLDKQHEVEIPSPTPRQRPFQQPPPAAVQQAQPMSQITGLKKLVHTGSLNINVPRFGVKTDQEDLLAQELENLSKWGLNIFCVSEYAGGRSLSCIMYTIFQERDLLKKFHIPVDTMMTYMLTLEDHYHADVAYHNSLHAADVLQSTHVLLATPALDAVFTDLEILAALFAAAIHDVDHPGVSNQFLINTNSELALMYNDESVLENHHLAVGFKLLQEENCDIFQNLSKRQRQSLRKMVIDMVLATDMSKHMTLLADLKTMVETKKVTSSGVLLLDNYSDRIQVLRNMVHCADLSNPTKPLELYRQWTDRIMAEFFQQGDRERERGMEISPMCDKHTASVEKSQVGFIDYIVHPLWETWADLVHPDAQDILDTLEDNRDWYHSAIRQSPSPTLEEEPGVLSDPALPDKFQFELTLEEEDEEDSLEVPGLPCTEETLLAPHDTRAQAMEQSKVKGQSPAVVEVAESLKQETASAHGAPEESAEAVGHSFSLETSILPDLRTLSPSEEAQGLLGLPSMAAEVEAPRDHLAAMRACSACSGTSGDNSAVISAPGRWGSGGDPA
If the reported Composite Z score, PDE4A1 equals or exceeds 2, assign condition met. If not, assign condition not met.

Solved entries (count: 3):
                                   compound                         assayed_target     category_label
0  O=C(O)CCNc1ncnc2sc3c(c12)CCCC3 [Compound 2012O16]  PDE4A1 (Mus musculus, UniProt O89084)      condition met
1  CCOC(=O)c1sc2ncnc(N3CCc4ccccc4C3)c2c1C [Compound 1379L18]  PDE4A1 (Mus musculus, UniProt O89084)  condition not met
2  COc1cc(NC(=O)c2sc3nc(C)nc(N4CCOCC4)c3c2C)cc(OC)c1OC [Compound 1159O09]  PDE4A1 (Mus musculus, UniProt O89084)  condition not met

Please examine the following record next.
Could you verify whether the entry CCN(CC)c1ncnc2sc3c(c12)CCCC3 [BC44] shows Composite Z score, PDE4A1 of no less than 2? condition met

----------
biological target: PDE4B3 (Mus musculus, UniProt Q8VBU5); construct: targets used in the assays are full-length proteins (as opposed to simply the catalytic domain); expressed in transfected cells; host or cells: Schizosaccharomyces pombe, PDE gene integrated in place of cgs2; test: 5FOA growth assay in fission yeast strain expressing PDE4B3; type: cell-based, Murine; conditions: high throughput 5FOA growth screen
Sequence (Q8VBU5 1-721): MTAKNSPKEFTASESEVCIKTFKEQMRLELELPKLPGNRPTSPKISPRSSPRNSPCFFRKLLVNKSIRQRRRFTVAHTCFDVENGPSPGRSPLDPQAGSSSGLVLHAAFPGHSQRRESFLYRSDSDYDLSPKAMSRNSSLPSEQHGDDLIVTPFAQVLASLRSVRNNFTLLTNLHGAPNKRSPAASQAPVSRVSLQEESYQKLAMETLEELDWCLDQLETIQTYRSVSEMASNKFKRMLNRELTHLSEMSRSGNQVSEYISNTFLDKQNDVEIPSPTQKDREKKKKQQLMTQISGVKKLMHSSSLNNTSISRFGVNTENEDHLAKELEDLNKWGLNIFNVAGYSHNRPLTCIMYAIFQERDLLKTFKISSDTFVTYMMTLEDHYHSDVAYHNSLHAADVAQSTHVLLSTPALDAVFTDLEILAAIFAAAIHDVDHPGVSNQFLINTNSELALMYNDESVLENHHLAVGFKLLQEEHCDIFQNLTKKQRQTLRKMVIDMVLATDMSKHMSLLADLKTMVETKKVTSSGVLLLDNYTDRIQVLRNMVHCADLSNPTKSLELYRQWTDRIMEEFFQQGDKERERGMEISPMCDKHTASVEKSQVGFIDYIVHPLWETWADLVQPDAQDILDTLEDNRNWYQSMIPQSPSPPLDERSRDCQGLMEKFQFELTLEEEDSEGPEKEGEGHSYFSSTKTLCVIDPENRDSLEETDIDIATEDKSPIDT
Property: Composite Z score, PDE4B3; scope: individual compounds
Lab note: write the figure by itself, no unit.

>>> df
                                   compound                         assayed_target  measured_result
0  COc1cc(OC)c(NC(=O)c2sc3ncnc(N4CCCCC4C)c3c2C)cc1Cl (centres unmarked)  PDE4B3 (Mus musculus, UniProt Q8VBU5)           1.7278
1        Cc1sc2ncnc(NCc3ccc4c(c3)OCO4)c2c1C  PDE4B3 (Mus musculus, UniProt Q8VBU5)           0.9419
2      COc1ccc(CCNc2ncnc3sc4c(c23)CCCC4)cc1  PDE4B3 (Mus musculus, UniProt Q8VBU5)           43.053
3  Cc1nc(N2CCC(C)CC2)c2c(C)c(C(=O)N3CCN(c4ccc(F)cc4)CC3)sc2n1  PDE4B3 (Mus musculus, UniProt Q8VBU5)           3.1975
4    CCOC(=O)c1sc2nc(C)nc(N3CCC(C)CC3)c2c1C  PDE4B3 (Mus musculus, UniProt Q8VBU5)           0.2826
5  CCOC(=O)c1sc2nc(C)nc(N(C)Cc3ccccc3)c2c1C  PDE4B3 (Mus musculus, UniProt Q8VBU5)           0.2682

Composite Z score, PDE4B3 for c1csc(CCNc2ncnc3sc4c(c23)CCC4)c1 is 0.0838

Composite Z score, PDE4B3 for Cc1nc(N2CC(C)OC(C)C2)c2c3c(sc2n1)CCC3 (centres unmarked) is 5.4669

Composite Z score, PDE4B3 for O=C(/C=C/c1ccccc1)Nc1ncnc2sc3c(c12)CCC3 is 0.0615

Composite Z score, PDE4B3 for CCN1CCN(c2nc(C)nc3sc4c(c23)CCC4)CC1 is 0.632

Composite Z score, PDE4B3 for CN(C)CCCNc1ncnc2sc3c(c12)CCCC3 is 21.25

Where these numbers come from: patent US20100227853A1
